target: Botulinum neurotoxin type B, subtype B3 (BoNT/B3) (Clostridium botulinum); test: KinExA flow fluorimetry; IgG in solution
readout: pKd
// field semantics: pKd = negative decimal log of concentration (mol/L)

For 1B18 IgG (antibody, V domains shown) VH: EVQLVQSGGGLVQPGGSRRLSCAASGFYFNAYWMTWVRQAPGKGLEWVANINLDGTEIYYLDSVKGRFTVSRDNVKNSVFLQMSSLRVEDTAVYFCARLEWGGRNGWVSPWGQGTLVTVSS VL: DVVMTQSPSSVSASVGDRVTITCRASQSISSYLNWYQQRPGKAPKLLIFAASSLQSAVPSRFSGSGSGTDFTLTISSLQPEDFATYYCQQSYSTPPTFGQGTKVEIKR the binder record lists pKd as 9.01

For B12.1 IgG (antibody, V domains shown) VH: QVNLRESGGGVVQPGRSLRLSCAASGFTFSSYALHWVRQTPGKGLEWVALISYDGSNKYYADSVKGRFTISRDNSKNMLYLQMNSLRAEDTAVYYCAKDRSHYGDYVGYLDYWGQGTLVTVSS VL: AYVLTQPPSVSVAPGKTAAITCEGNNVGNKNVHWYQQRPGQAPVLVVHDDSDRPSGIPERFSGSNSGNTATLTINRVEAGDEADYYCQVWDSSSAQWVFGGGTKLTVLG the binder record lists pKd as 10.34

For B11E8 IgG (antibody, V domains shown) VH: EVQLVQSGGGVVQPGRSLRLSCAASGFIFRTYGMHWVRQAPGKGLEWVAFVSSDGNNKFYSDSVKGRFTISRDNAKNTLYLQMNSLETEDTAMYYCAKDRYPIDCSGGSCFSYGMDVWGQGTTVTVSS VL: EIVLTQSPATLSVSPGERATLSCRASQSVSKFLAWYQQKRGQAPRLLIYGASTRATGIPARFSGSGSGTEFALTISSLQSEDFADYYCQQYDNWPITFGQGTRLEIKR the binder record lists pKd as 10.81
